Biological target: panel of more than 300 wild-type and mutant kinases (313 kinase panel) (Homo sapiens)
Assay: Kinase profiling in a biochemical assay panel (mobility shift assays and ELISA), %-inhibition at 1 μM; selectivity entropy
Conditions: kinase LIMK1; compound at 1 μM
Endpoint Name: %-inhibition of LIMK1 (%)
The response must be a number in % with no trailing unit.

query: Reported %-inhibition of LIMK1 for Cc1ccc(C(=O)Nc2ccc(CN3CCN(C)CC3)c(C(F)(F)F)c2)cc1C#Cc1cnc2cccnn12 [ponatinib] : what is it?
result: 68

query: Reported %-inhibition of LIMK1 for CO[C@H]1C[C@@H]2CC[C@@H](C)[C@@](O)(O2)C(=O)C(=O)N2CCCC[C@H]2C(=O)O[C@H]([C@H](C)C[C@@H]2CC[C@@H](OC(=O)C(C)(CO)CO)[C@H](OC)C2)CC(=O)[C@H](C)/C=C(\C)[C@@H](O)[C@@H](OC)C(=O)[C@H](C)C[C@H](C)/C=C/C=C/C=C/1C [temsirolimus] : what is it?
result: -5

query: Reported %-inhibition of LIMK1 for CC(C)(C)c1nc(-c2cccc(NS(=O)(=O)c3c(F)cccc3F)c2F)c(-c2ccnc(N)n2)s1 [dabrafenib] : what is it?
result: 100

query: Reported %-inhibition of LIMK1 for Cc1cn(-c2cc(NC(=O)c3ccc(C)c(Nc4nccc(-c5cccnc5)n4)c3)cc(C(F)(F)F)c2)cn1 [nilotinib] : what is it?
result: -18

query: Reported %-inhibition of LIMK1 for CS(=O)(=O)CCNCc1ccc(-c2ccc3ncnc(Nc4ccc(OCc5cccc(F)c5)c(Cl)c4)c3c2)o1 [lapatinib] : what is it?
result: -2.33

query: Reported %-inhibition of LIMK1 for C[C@@H](Oc1cc(-c2cnn(C3CCNCC3)c2)cnc1N)c1c(Cl)ccc(F)c1Cl [crizotinib] : what is it?
result: 94

query: Reported %-inhibition of LIMK1 for CO[C@H]1C[C@@H]2CC[C@@H](C)[C@@](O)(O2)C(=O)C(=O)N2CCCC[C@H]2C(=O)O[C@H]([C@H](C)C[C@@H]2CC[C@@H](OCCO)[C@H](OC)C2)CC(=O)[C@H](C)/C=C(\C)[C@@H](O)[C@@H](OC)C(=O)[C@H](C)C[C@H](C)/C=C/C=C/C=C/1C [everolimus] : what is it?
result: 3.28

====

Biological target: panel of more than 300 wild-type and mutant kinases (313 kinase panel) (Homo sapiens, UniProt P53355)
Assay: Kinase profiling in a biochemical assay panel (mobility shift assays and ELISA), %-inhibition at 1 μM; selectivity entropy
Conditions: kinase DAPK1; compound at 1 μM
Answer each item with its documented %-inhibition of DAPK1.
Hi, when you answer, please include the unit after the number. Thanks!

query: Reported %-inhibition of DAPK1 for Cc1cn(-c2cc(NC(=O)c3ccc(C)c(Nc4nccc(-c5cccnc5)n4)c3)cc(C(F)(F)F)c2)cn1 [nilotinib] : what is it?
result: -11%

query: Reported %-inhibition of DAPK1 for CO[C@H]1C[C@@H]2CC[C@@H](C)[C@@](O)(O2)C(=O)C(=O)N2CCCC[C@H]2C(=O)O[C@H]([C@H](C)C[C@@H]2CC[C@@H](OC(=O)C(C)(CO)CO)[C@H](OC)C2)CC(=O)[C@H](C)/C=C(\C)[C@@H](O)[C@@H](OC)C(=O)[C@H](C)C[C@H](C)/C=C/C=C/C=C/1C [temsirolimus] : what is it?
result: -8%
